Target: T1, H57R
T1 chain: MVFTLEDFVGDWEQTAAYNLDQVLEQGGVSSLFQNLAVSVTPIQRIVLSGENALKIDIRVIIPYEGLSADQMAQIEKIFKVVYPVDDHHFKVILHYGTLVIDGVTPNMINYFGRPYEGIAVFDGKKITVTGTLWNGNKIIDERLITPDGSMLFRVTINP
Conditions: modification not given
readout label: pKd
The scale used: pKd is minus the common logarithm of the concentration in molar units.

Recorded result, NVSGWRLFKKISN [NLpep78] , pKd: 7.85
